Assignment: determine reported amyloid nucleation score for the given substances.
Assay: amyloid nucleation score (Sup35N fusion, yeast selection) (log enrichment); library NNK2; higher = more nucleation; inactive = no reads after selection;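 further: zero at mode of non-aggregating sequences after 7 days selection at 30°C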
Answers are plain numbers.

[
  {
    "substance": "NSGHYFKDKSWCQMRS",
    "amyloid nucleation score": 0.615
  },
  {
    "substance": "FFYWLAMIW",
    "amyloid nucleation score": -0.582
  }
]

Give measured amyloid nucleation score for every item shown.
1. DSSKSMCLICSNCILNFSEM
2. SRFYILRL
3. LSRDVHCSRFSHREGLITRT
4. RCTGDLGRVARFWYETVKLN
5. RILFRGHSVLKNWF
6. ISDSRLRKCVAPHSRDSGGH

## Output
1. 8.7
2. 2.25
3. 0.767
4. -0.066
5. -1.86
6. 1.96

Could I get amyloid nucleation score for every one of these entries?
1. VDLYQVWSSCPVFVLWGYSC
2. SYVIGGGSMGQARDRCLSNA
3. VVRGIRVTR
4. KYMRLSSPAGSAVPLWTLYL
5. IHNPLVRY
6. VGSFSTVGCR
7. TCELYESHVGTFLHVSSNGT
8. TQCSLRLKFTCYAMRSFGQY

## Output
0.072
1.11
0.116
0.148
-0.366
0.003
1.23
5.02

Kindly give each listed record's amyloid nucleation score.
1. IARFSKKTSVSMGTRCAT
2. HTITNTL
3. QLVGDELMRCSNGAVDKNVA
4. NDGYFVFDALFFHR
5. MSYAYKVRSCCVMFMMFRSW

## Output
1. 0.122
2. -0.06
3. 1.75
4. -2.34
5. -0.336

Could you report amyloid nucleation score for every entry in the following list?
1. TGTPYRF
2. AHAPGPNEA
3. ELTSLQVMLSNDEMMGGRVN
4. YGDMAVFVG

## Output
1: 1.11; 2: 0.276; 3: 0.064; 4: 1.07

###

Test: amyloid nucleation score (Sup35N fusion, yeast selection) (log enrichment); library NNK1; higher = more nucleation; inactive = no reads after selection
Record form. Attribute: amyloid nucleation score. Fill in for each entry.
Answers are plain numbers.

Below, 5 substances whose answers are already recorded.
[
  {
    "substance": "TWQSLHGTVTRPRAIVFRLC",
    "test_readout": "amyloid nucleation score",
    "observed_result": 0.027
  },
  {
    "substance": "VTGKTLTLIEFFIHSQPLSR",
    "test_readout": "amyloid nucleation score",
    "observed_result": 0.217
  },
  {
    "substance": "APRYHAVFLLII",
    "test_readout": "amyloid nucleation score",
    "observed_result": -0.505
  },
  {
    "substance": "INLMGSPS",
    "test_readout": "amyloid nucleation score",
    "observed_result": -0.708
  },
  {
    "substance": "ERPAAYATVTTSCKKTWDL",
    "test_readout": "amyloid nucleation score",
    "observed_result": 7.77
  }
]

Hi team, please reply with amyloid nucleation score for each item in this list.
1. PSYHSRPRSPYGNIEYKEHR
2. WVRGSYPPDAHR
3. FFICKFL
4. WGNFAVSWVFMEVNACRLRW
5. CDNSLDSIWFVSVSWN
6. PSHFHHQ

## Output
[0.46, 1.86, -0.427, -0.323, 1.16, 0.305]

// each listed substance needs a value for amyloid nucleation score
1. KDEGLTEVFESWISWGW
2. WNELCHQLNWCICRVAGFVK
3. INRFEG

## Output
[-0.065, -0.637, -0.385]

## Input Please report the recorded amyloid nucleation score for RLFPDAMDSRRYIKWQRVV .
## Output 0.215

###

Assay: amyloid nucleation score (Sup35N fusion, yeast selection) (log enrichment); library NNK1; higher = more nucleation; inactive = no reads after selection
test_readout: amyloid nucleation score

In the examples that follow, each entry is paired with its recorded amyloid nucleation score.
[
  {
    "substance": "DLLFMLRGAWAKSFMMGSVG",
    "test_readout": "amyloid nucleation score",
    "observed_result": 0.059
  },
  {
    "substance": "DYGKSCRIALYGYYDRWCTG",
    "test_readout": "amyloid nucleation score",
    "observed_result": 0.797
  },
  {
    "substance": "QTSDTNWGVLFTVYFLCQDM",
    "test_readout": "amyloid nucleation score",
    "observed_result": -0.059
  },
  {
    "substance": "CALAIRIVCS",
    "test_readout": "amyloid nucleation score",
    "observed_result": "inactive"
  },
  {
    "substance": "SAVSMVR",
    "test_readout": "amyloid nucleation score",
    "observed_result": -0.594
  },
  {
    "substance": "GPFGLGSMSGSIKWRYHVCC",
    "test_readout": "amyloid nucleation score",
    "observed_result": 0.528
  },
  {
    "substance": "GPLINTDELWIWSAVCCCRL",
    "test_readout": "amyloid nucleation score",
    "observed_result": -0.781
  },
  {
    "substance": "DKTMVGTPGLTHMVVDGVE",
    "test_readout": "amyloid nucleation score",
    "observed_result": 0.12
  },
  {
    "substance": "AYWSGTYEGEWYLVDRQFYW",
    "test_readout": "amyloid nucleation score",
    "observed_result": 0.542
  },
  {
    "substance": "TRCCLFDRSSIYPSYCNEEA",
    "test_readout": "amyloid nucleation score",
    "observed_result": -0.123
  }
]

Give one value of amyloid nucleation score per listed substance.
1. VESLDKIPMR
2. VGIWIGVDMGIGWGRDSVYV
3. FSFDLLSVESGITNV

## Output
1: 0.173; 2: 0.125; 3: -0.054

Look at each substance and report its amyloid nucleation score.
1. TMTSPVGWETSSFRRMDR
2. GPISLWSPLRSVN

## Output
1. 0.796
2. 0.444

Batch request: amyloid nucleation score for each of the following substances.
1. NHGLYTVFWGCCPWFSQNLF
2. GSYGNDVWRP

## Output
1. 7.89
2. -0.041

For every item in the list below, what is its measured amyloid nucleation score?
1. PSQHSIPLLTQVYVLL
2. RNCLFVFGSLGYCSERAYKL

## Output
1. 5.54
2. 6.7

Please give amyloid nucleation score for each item listed below.
1. CTRHMHTSRKFQALLSWCVT
2. YSVMSSRSGIVGSWVHRGVQ
3. RQSRVQGMYHY
4. ADAGGSQVWAYQAQIICPKW
5. SCNWDRNVLDMFFLN
6. GCSVVNMADMG
7. RSESNVMS
8. RWSIELCVRM

## Output
-0.316
0.38
1.28
-0.63
inactive
1.29
0.397
-0.367

// batch mode: one amyloid nucleation score value per listed entry
1. FLKFDTSMVVLGWTFLMESF
2. FGVYLACIHRKVLECDR
3. QSTVTCRFMCVVWGSNW
4. AYIDKMCTPYNKGRLLMHWY
5. NGYQCYGILCAFVTWTVYFW
6. RRCLSIPLVCFRDKNMNMGF

## Output
[-0.023, -0.241, -0.078, 1.97, 1.26, -0.246]

Please go through the list and note amyloid nucleation score for each substance.
1. TCPWWTVIVFTSESMP
2. VRMKIGNFSCCRYWKPPLYT
3. GHRTWRLITAIDA
4. IWWFSTFVRRRRAAVKVHKA

## Output
1. inactive
2. 1.29
3. 0.088
4. inactive

List the reported amyloid nucleation score of each substance below.
1. MSKKMQRPRVAAVGFERFGT
2. SVWGIILYYWKY
3. VGELFCGWSRRERYPVWSLV
4. IGTGLLS
5. TCRNFRHG
6. TWMNASCKSCTYAARFSDQK
7. VRSDAVKEARISFCLRSKRF

## Output
-0.174
0.388
0.255
0.451
-0.542
1.51
0.423

###

Experiment: amyloid nucleation score (Sup35N fusion, yeast selection) (log enrichment); library NNK1; higher = more nucleation; inactive = no reads after selection
Please provide measured amyloid nucleation score for the entries that follow.
Numbers only.

[
  {
    "substance": "LCGIVRKILQTSKRSR",
    "amyloid nucleation score": 0.063
  }
]

Batch request: amyloid nucleation score per item, same order as input.
1. DGSYTTRGRGHGESGRSGCW
2. RVRGSASMLLSLMCSFTMYE
3. ISYMHKLCLFSFYLDHKLTL
4. RIGTFGNDNSMFRSDVLSVS

## Output
0.17
3.3
-1.49
0.579

###

Experiment: amyloid nucleation score (Sup35N fusion, yeast selection) (log enrichment); library NNK2; higher = more nucleation; inactive = no reads after selection
Classification field: enter rule met for amyloid nucleation score values not below 0.1, rule not met for values below it.

Examples from the recorded data:
[
  {
    "sequence_string": "QFLAIFCSIT",
    "group": "rule met"
  },
  {
    "sequence_string": "VRIIETGRC",
    "group": "rule met"
  },
  {
    "sequence_string": "DGTYLQNRRDFNNGSARRGW",
    "group": "rule met"
  },
  {
    "sequence_string": "CGMNGKTEGEWMGYRKDEGE",
    "group": "rule met"
  },
  {
    "sequence_string": "KILRVKRQGRGSRNR",
    "group": "rule not met"
  }
]

## Input State whether the measured amyloid nucleation score reaches 0.1, counting equality as reaching it, for FRFFCHISMNLGTLWRLDCL
## Output rule not met

## Input Could you verify whether the entry SLSSGHETVR shows amyloid nucleation score of no less than 0.1?
## Output rule met

## Input Decide: amyloid nucleation score of RIVMLGFVN >= 0.1?
## Output rule not met

## Input Entry SFKSDSFTDYYLIDLAITRG : is its amyloid nucleation score no less than 0.1?
## Output rule not met

## Input Check if amyloid nucleation score >= 0.1 (inclusive). Item: CVILLVIFMLYIYWFSDMFL
## Output rule not met
